Experiment: in vivo
Conditions: Sprague-Dawley, rat, brain/plasma, iv, 1 mg/kg
Description: Ratio of drug level from brain to plasma in Sprague-Dawley rat at 1 mg/kg, iv

Smiles data	Kp
O=C(Nc1ccc(NC(=O)c2ccccc2Cl)c(Cl)c1)c1ccccn1	1.04

* * *

Target: Metabotropic glutamate receptor 4 (Homo sapiens, UniProt Q14833)
Sequence (Q14833 whole entry): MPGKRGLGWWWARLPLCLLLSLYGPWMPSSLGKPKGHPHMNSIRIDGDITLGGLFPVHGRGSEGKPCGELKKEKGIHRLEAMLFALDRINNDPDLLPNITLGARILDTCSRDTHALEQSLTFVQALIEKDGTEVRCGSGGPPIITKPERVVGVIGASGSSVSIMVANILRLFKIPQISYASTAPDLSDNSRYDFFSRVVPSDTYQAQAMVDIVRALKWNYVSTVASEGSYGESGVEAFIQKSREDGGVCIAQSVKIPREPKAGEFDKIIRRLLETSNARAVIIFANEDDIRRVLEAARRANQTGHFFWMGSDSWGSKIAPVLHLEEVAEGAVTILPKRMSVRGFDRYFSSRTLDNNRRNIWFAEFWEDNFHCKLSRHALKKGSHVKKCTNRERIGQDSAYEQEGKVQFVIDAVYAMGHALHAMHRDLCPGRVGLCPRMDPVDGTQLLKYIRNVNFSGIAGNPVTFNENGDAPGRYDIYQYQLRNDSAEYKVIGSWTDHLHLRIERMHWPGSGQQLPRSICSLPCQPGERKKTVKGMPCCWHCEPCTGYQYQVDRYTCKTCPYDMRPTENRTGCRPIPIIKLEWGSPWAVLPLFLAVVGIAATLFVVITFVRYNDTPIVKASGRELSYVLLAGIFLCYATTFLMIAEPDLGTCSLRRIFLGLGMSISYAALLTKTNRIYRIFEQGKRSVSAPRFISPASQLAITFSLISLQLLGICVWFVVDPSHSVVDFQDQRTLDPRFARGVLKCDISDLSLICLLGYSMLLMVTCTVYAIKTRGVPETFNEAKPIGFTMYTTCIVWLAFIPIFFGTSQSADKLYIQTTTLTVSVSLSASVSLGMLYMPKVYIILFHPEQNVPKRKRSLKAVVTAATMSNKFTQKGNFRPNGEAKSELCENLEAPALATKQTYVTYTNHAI
Experiment: Positive allosteric modulation of human mGluR4 expressed in CHO cells coexpressing Gqi5 assessed as calcium mobilization
Format: functional, cell-based
Details: read-out: EC50
Please use Y for EC50 under 1000 nM and N for everything else, ties included.

Smiles data	Label
COc1cc(NC(=O)c2nccs2)ccc1NC(=O)c1ccccc1Cl	Y
COc1ccccc1C(=O)n1ccc2cc(NC(=O)c3ccccn3)ccc21	N
O=C(Nc1ccc(NC(=O)C2CCCCC2)c(Cl)c1)c1ccccn1	Y
O=C(Nc1ccc(NC(=O)c2cncs2)c(Cl)c1)c1ccccn1	N
O=C(Nc1ccc(NC(=O)c2ccccc2Cl)c(C(F)(F)F)c1)c1ccccn1	N
COc1cc(NC(=O)c2cnccn2)ccc1NC(=O)c1ccccc1Cl	N
Cn1c(C(=O)Nc2ccc(NC(=O)c3ccccn3)cc2Cl)cc2ccccc21	N
O=C(Nc1ccc2c(ccn2C(=O)c2ccc(F)cc2Cl)c1)c1ccccn1	N
COc1cc(NC(=O)c2cscn2)ccc1NC(=O)c1ccccc1Cl	Y
CC(C)C(=O)Nc1ccc(NC(=O)c2ccccn2)cc1Cl	N
O=C(Nc1ccc(NC(=O)c2ccccn2)cc1Cl)c1ccccc1	Y
COc1cc(NC(=O)c2ccncn2)ccc1NC(=O)c1ccccc1Cl	N
O=C(Nc1ccc(NC(=O)c2cccs2)c(Cl)c1)c1ccccn1	N
O=C(Nc1ccc(NC(=O)c2nccs2)c(Cl)c1)c1ccccn1	Y
COc1cc(NC(=O)C2CCCCC2)ccc1NC(=O)c1ccccc1Cl	N
COc1cc(NC(=O)c2ccc(Br)o2)ccc1NC(=O)c1ccccc1Cl	N
Cc1ccccc1C(=O)Nc1ccc(NC(=O)c2ccccn2)cc1Cl	Y
O=C(Nc1ccc(NC(=O)c2ccc(F)cc2Cl)c(Cl)c1)c1ccccn1	Y
O=C(Nc1ccc(NC(=O)c2ccccc2F)c(Cl)c1)c1ccccn1	N
O=C(Nc1ccc(NC(=O)c2ccccc2Cl)cc1)c1ccccn1	N
O=C(Nc1ccc(NC(=O)c2ccccn2)cc1Cl)c1cc(Cl)cc(Cl)c1	N

* * *

Assay: in vivo
Details: Sprague-Dawley, rat, sc, 10 mg/kg
Entries and their Tmax values follow.
Value type: Tmax (min)

Smiles data	Value type	Measured value
O=C(Nc1ccc(NC(=O)c2ccccc2Cl)c(Cl)c1)c1ccccn1	Tmax	30
COc1cc(NC(=O)c2ccccn2)ccc1NC(=O)c1ccccc1Cl	Tmax	60
Cc1ccccc1C(=O)Nc1ccc(NC(=O)c2ccccn2)cc1Cl	Tmax	30

* * *

Entries and their pEC50 values follow.
Molecular target: Metabotropic glutamate receptor 4 (Rattus norvegicus, UniProt P31423)
Sequence (P31423 whole entry): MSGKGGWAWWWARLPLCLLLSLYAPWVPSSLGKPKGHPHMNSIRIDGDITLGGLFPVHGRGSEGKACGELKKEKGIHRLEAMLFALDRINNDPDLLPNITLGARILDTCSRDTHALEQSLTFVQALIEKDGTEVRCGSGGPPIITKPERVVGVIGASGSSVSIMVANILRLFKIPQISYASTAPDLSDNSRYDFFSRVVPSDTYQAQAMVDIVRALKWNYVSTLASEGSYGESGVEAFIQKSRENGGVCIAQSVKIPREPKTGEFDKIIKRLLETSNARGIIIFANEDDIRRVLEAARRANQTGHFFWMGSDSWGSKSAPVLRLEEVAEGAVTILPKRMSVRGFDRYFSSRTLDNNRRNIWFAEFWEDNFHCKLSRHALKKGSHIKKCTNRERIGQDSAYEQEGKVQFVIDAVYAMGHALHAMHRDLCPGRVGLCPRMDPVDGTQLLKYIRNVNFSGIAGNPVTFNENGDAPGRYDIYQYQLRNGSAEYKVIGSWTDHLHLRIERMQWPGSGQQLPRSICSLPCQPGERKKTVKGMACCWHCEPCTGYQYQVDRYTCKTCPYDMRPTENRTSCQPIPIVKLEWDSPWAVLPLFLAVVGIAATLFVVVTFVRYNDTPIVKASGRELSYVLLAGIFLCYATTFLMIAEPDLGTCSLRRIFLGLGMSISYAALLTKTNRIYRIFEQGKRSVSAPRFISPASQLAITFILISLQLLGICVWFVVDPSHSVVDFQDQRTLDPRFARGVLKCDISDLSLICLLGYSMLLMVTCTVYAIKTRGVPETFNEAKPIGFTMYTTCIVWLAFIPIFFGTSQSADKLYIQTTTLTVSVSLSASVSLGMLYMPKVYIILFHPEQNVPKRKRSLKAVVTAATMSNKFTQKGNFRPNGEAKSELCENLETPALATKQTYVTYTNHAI
Assay: Positive allosteric modulation of rat mGluR4 expressed in CHO cells coexpressing Gqi5 assessed as calcium mobilization
Assay type: functional, cell-based
Conditions: read-out: EC50
pEC50: −log10 of the molar value.

Compound	Relation sign	pEC50
O=C(Nc1ccc(NC(=O)c2ccc(F)cc2Cl)c(Cl)c1)c1ccccn1	=	6.77
O=C(Nc1ccc(NC(=O)c2cncs2)c(Cl)c1)c1ccccn1	=	5.76
O=C(Nc1ccc(NC(=O)c2ccccn2)cc1Cl)c1cc(Cl)cc(Cl)c1	=	5.63
O=C(Nc1ccccc1)[C@]12C[C@H]1/C(=N\O)c1ccccc1O2	=	5.55
O=C(Nc1ccc(NC(=O)c2cccs2)c(Cl)c1)c1ccccn1	=	5.95
COc1cc(NC(=O)c2nccs2)ccc1NC(=O)c1ccccc1Cl	=	6.42
O=C(Nc1ccc(NC(=O)c2ccc(-c3ccccc3)o2)c(Cl)c1)c1ccccn1	=	5.47
COc1cc(NC(=O)C2CCCO2)ccc1NC(=O)c1ccccc1Cl (configuration not stated)	<	5.00
O=C(Nc1ccc(NC(=O)c2ccccn2)cc1Cl)c1ccccc1	=	6.29
O=C(Nc1ccc(NC(=O)c2ccccc2Cl)c(C(F)(F)F)c1)c1ccccn1	=	5.63
Cn1c(C(=O)Nc2ccc(NC(=O)c3ccccn3)cc2Cl)cc2ccccc21	=	5.53
O=C(Nc1ccc(NC(=O)c2ccccc2F)c(Cl)c1)c1ccccn1	=	5.36
COc1ccccc1C(=O)n1ccc2cc(NC(=O)c3ccccn3)ccc21	=	5.87
COc1cc(NC(=O)c2ccco2)ccc1NC(=O)c1ccccc1Cl	=	6.00
CC(C)C(=O)Nc1ccc(NC(=O)c2ccccn2)cc1Cl	=	5.32
COc1cc(NC(=O)c2ccncn2)ccc1NC(=O)c1ccccc1Cl	=	6.05
O=C(Nc1ccc(NC(=O)c2nccs2)c(Cl)c1)c1ccccn1	=	6.27
O=C(Nc1ccc2c(ccn2C(=O)c2ccc(F)cc2Cl)c1)c1ccccn1	=	5.78
COc1cc(NC(=O)c2ccc(Br)o2)ccc1NC(=O)c1ccccc1Cl	=	6.00
O=C(Nc1ccc(NC(=O)C2CCCCC2)c(Cl)c1)c1ccccn1	=	6.23
O=C(Nc1ccc(NC(=O)c2ccccc2Cl)cc1)c1ccccn1	=	5.65
Cc1ccccc1C(=O)Nc1ccc(NC(=O)c2ccccn2)cc1Cl	=	6.04
O=C(Nc1ccc(NC(=O)c2ccc(F)cc2F)c(Cl)c1)c1ccccn1	=	5.68
COc1cc(NC(=O)c2cscn2)ccc1NC(=O)c1ccccc1Cl	=	6.12
COc1cc(NC(=O)C2CCCCC2)ccc1NC(=O)c1ccccc1Cl	=	5.82
O=C(Nc1ccc(NC(=O)c2ccccc2Cl)c(Cl)c1)c1ccccn1	=	6.24
COc1cc(NC(=O)c2cnccn2)ccc1NC(=O)c1ccccc1Cl	=	5.95
